Test system: Plasmodium berghei
EXPERIMENTAL PROTOCOL: Screen against P. berghei liver stage (PbLuc), transformed with Luciferase, at 10uM
Type: functional, HepG2
CONDITION CONTEXT: tested at 10 uM
Among all 69,000 compounds or so, about 8,600 (12%) showed an effect of 50% or more. The list comes from a sample in which strong results are over-represented; it also holds close analogues and randomly drawn compounds.
Recorded INHIBITION, one value per entry.
The reply should contain only the number, in %.

Sample records with INHIBITION:
Incoming: Item under review: COC(=O)CC1CCCCN1CC(=O)Nc1cc(F)ccc1F (stereo unspecified) . Reported INHIBITION?
Outgoing: 47.2

Incoming: Same for CCN(CCOC)C(=O)c1cc(COc2ccc3c(c2)CCCC3)on1
Outgoing: 25.1

Incoming: Same for Cc1cccc(CN2CC[C@@H]3[C@@H]2CCN3C(=O)Cc2ccsc2)n1
Outgoing: 63.8

Incoming: Same for Oc1ccc(Cl)cc1CNCc1cccc(C(F)(F)F)c1
Outgoing: 27.4

Incoming: Same for Fc1cccc(-n2nc(C3CC3)nc2CCn2cnnn2)c1
Outgoing: 24.8

Incoming: Same for CCn1cnnc1C1CCN(C(=O)c2ccc(Cl)cc2OC)CC1
Outgoing: 25.1

Incoming: Same for CCCn1ncc(C(=O)N2CCN(C3CCCC3)CC2)c1C
Outgoing: -39.2

Incoming: Same for CC1=CC[C@@H]2CN(C(=O)c3ccc(-c4nnn(C)n4)cc3)C[C@@H]2C1
Outgoing: 35.8

---
Incoming: Item under review: COc1ccc(CCNC(=O)C2CCC(Cn3cnnn3)CC2)cc1 (stereo unspecified) . Reported INHIBITION?
Outgoing: 22.9

Incoming: Same for O=C(Cc1cccs1)N1CC[C@H]2[C@H]1CCN2Cc1cccnc1
Outgoing: -25.8

Incoming: Same for CC(=O)N[C@H]1CN(S(=O)(=O)N(C)Cc2ccccc2)C[C@@H]1C1CC1
Outgoing: 64.4

Incoming: Same for Cc1ccc(Oc2ncccc2CNC(=O)C2COC(=O)N2)c(F)c1F (stereo unspecified)
Outgoing: 12.9

Incoming: Same for O=C(c1ccc(-c2ccc(O)nc2)s1)N1CCCCC1
Outgoing: -69.6

Incoming: Same for CN(Cc1ccccc1)C(=O)CCN1C[C@H](C2CC2)[C@@H](N(C)C)C1
Outgoing: 14.9

Incoming: Same for CNc1nc2cn(CCc3ccccc3)c(=O)c-2c[nH]1
Outgoing: -32.1

Incoming: Same for CCc1ncc(C(=O)NCCN2CCNC2=O)cn1
Outgoing: 22.285

Incoming: Same for Cc1cnn(CC2CCCCN2c2nn3cc(C)nc3s2)c1 (stereo unspecified)
Outgoing: -23.9

Incoming: Same for CCC[C@H]1CN(S(=O)(=O)N(C)Cc2ccccc2)C[C@@H]1N
Outgoing: 77.5

Incoming: Same for COc1cc2c(cc1OC)CN(C(=O)NCC1CCCO1)CC2 (stereo unspecified)
Outgoing: 18.9

Incoming: Same for CN(Cc1ccccc1)S(=O)(=O)N1C[C@H](C2CC2)[C@@H](N)C1
Outgoing: -43.1

Incoming: Same for O=C1C[C@H]2[C@@H](CCN2C(=O)Cc2cccs2)N1CC1CC1
Outgoing: -38.1

Incoming: Same for Cc1nc(CN2CCn3cc(CNC(=O)C4CCC4)nc3C2)cs1
Outgoing: -3.1

Incoming: Same for Cc1ccc(N2CC[C@@H]3[C@@H]2CCN3C(=O)Cc2ccsc2)nn1
Outgoing: 55.7

Incoming: Same for CC(C)N(CCNC(=O)c1ccc(S(=O)(=O)NC2CC2)cc1)C(C)C
Outgoing: 19.2

Incoming: Same for CN(Cc1cccc(F)c1)S(=O)(=O)N1CCOCC1
Outgoing: -26.1

Incoming: Same for COCCN1CC[C@@H]2OC(COCC(=O)N3CCCC3)CC[C@@H]21 (stereo partly specified)
Outgoing: -36

Incoming: Same for CC(=O)N1CCN(C(=O)CN(C)c2ccc(Cl)cn2)CC1
Outgoing: 25

Incoming: Same for CN(Cc1ccc(F)cc1)S(=O)(=O)N1CCOCC1
Outgoing: -8.005

Incoming: Same for CCOc1ncccc1NC(=O)N1CCC(CN2CCOCC2)CC1
Outgoing: 31.65

Incoming: Same for CN(C)CCNC(=O)c1ccc(S(=O)(=O)N[C@@H]2CCNC2)cc1
Outgoing: 87.9

Incoming: Same for CO[C@H]1CCN(C(=O)c2ccc3oc(C)cc3c2)C[C@@]12CCCO2
Outgoing: 45.6

Incoming: Same for CCOCc1ccc(CNC(=O)N2CCC(C(N)=O)C2)cc1 (stereo unspecified)
Outgoing: 25.6
